Numbers sourced from ChEMBL document CHEMBL4673252.

experiment: Clearance in human liver microsomes at 0.5 uM incubated for 40 mins in presence of NADPH by LC-MS/MS analysis; assay type: ADME, Microsome; details: read-out: CLH
ASSAY ENDPOINT: CLint scaled at 0.5 µM

COc1ccc(-c2ccc(C(=O)O)c(CO)c2)n2nc(C3(C(=O)OCC(C)C)CC3)nc12 ... > 10 L/h/kg
CC[C@@H](C)OC(=O)C1(c2nc3c(OC)ccc(-c4ccc5c(c4)COC5=O)n3n2)CC1 ... > 12 L/h/kg
COc1ccc(-c2ccc3c(c2)COC3=O)n2nc(C3(C(=O)OC[C@@H](C)CO)CC3)nc12 ... 3.84 L/h/kg
COc1ccc(-c2cccc(C#N)c2)n2nc(C3(CC(=O)O)CC3)nc12 ... < 0.6 L/h/kg

Would you kindly look at the next entry?
Data point: COC(=O)c1ccc(-c2ccc(OC)c3nc(C4(C(=O)NCC(C)C)CC4)nn23)cc1 ; CLint scaled at 0.5 µM = > 12 L/h/kg

###

I'd appreciate it if you could supply CLint scaled at 0.5 µM values for the items below.
experiment: Clearance in human liver microsomes at 0.5 uM incubated for 40 mins in presence of NADPH by LC-MS/MS analysis; type: ADME, Microsome; conditions: read-out: CLH

COc1ccc(-c2ccc3c(c2)COC3=O)n2nc(C3(C(=O)NCC(C)C)CC3)nc12 ... > 12 L/h/kg
CCCCOC(=O)C1(c2nc3c(OC)ccc(-c4ccc5c(c4)COC5=O)n3n2)CC1 ... > 12 L/h/kg
COc1ccc(-c2cccc3c2COC3=O)n2nc(C3CC3)nc12 ... < 0.6 L/h/kg
COc1ccc(-c2ccc3c(c2)COC3=O)n2nc(C3(C(=O)OC4CCC4)CC3)nc12 ... > 12 L/h/kg
COc1ccc(-c2ccc3c(c2)COC3=O)n2nc(C3(C(=O)OC4CCCCCC4)CC3)nc12 ... > 12 L/h/kg
CC[C@H](C)OC(=O)C1(c2nc3c(OC)ccc(-c4ccc5c(c4)COC5=O)n3n2)CC1 ... > 12 L/h/kg
COc1ccc(-c2ccc3c(c2)COC3=O)n2nc(C3(C(=O)OC4CCCC4)CC3)nc12 ... > 12 L/h/kg
COc1ccc(-c2ccc3c(c2)COC3=O)n2nc(C3(C(=O)OC4CCCCC4)CC3)nc12 ... > 12 L/h/kg
COc1ccc(-c2cccc(C#N)c2)n2nc(C3(C(=O)OCC(C)C)CC3)nc12 ... > 12 L/h/kg
COc1ccc(-c2cccc(C#N)c2)n2nc(C3(C(=O)O)CC3)nc12 ... < 0.6 L/h/kg

Report CLint scaled at 0.5 µM for each item below.
1. COc1ccc(-c2cccc(C#N)c2)n2nc(C3(COC(=O)C(C)C)CC3)nc12
2. COc1ccc(-c2ccc(C(=O)O)c(CO)c2)n2nc(C3(C(=O)O)CC3)nc12
3. COc1ccc(-c2cccc(C#N)c2)n2nc(C3(CO)CC3)nc12

## Output
["> 12 L/h/kg", "< 0.66 L/h/kg", "< 0.6 L/h/kg"]
